# Target: T1, recombinant BACE1 (BACE1 extracellular domain, R&D Systems Cat#931-AS) (UniProt P56817 22-457)
# T1 construct: extracellular domain; also called BACE1 extracellular domain protein
# T1 sequence (P56817 22-457): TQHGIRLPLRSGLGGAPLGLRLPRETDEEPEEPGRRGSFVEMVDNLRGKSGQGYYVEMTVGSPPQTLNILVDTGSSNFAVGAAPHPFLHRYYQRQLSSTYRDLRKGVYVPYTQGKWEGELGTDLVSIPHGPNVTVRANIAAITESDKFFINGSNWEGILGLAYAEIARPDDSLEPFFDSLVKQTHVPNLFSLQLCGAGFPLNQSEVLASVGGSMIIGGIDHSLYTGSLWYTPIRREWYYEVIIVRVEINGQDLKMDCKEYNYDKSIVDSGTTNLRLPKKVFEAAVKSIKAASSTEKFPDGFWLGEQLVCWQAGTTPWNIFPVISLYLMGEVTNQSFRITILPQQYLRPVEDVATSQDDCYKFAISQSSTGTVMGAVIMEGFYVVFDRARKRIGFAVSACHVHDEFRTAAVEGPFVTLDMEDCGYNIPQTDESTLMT
# Test Description: SPR Biacore
Recorded Kd values for a group of binders are listed next.

- Binder: "2H8.29 (antibody, human IgG1, V domains shown, human IgG1/kappa; also called 2H8_HCvar5 + 2H8_LCvar5) VH: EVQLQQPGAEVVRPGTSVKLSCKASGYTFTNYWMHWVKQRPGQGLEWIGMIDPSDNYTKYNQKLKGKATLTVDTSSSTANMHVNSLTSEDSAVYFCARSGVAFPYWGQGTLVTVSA VL: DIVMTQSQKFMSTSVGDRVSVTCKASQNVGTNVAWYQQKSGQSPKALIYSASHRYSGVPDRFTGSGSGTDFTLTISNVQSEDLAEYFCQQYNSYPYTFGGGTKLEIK"
  Measurement Units: "nM"
  Kd: 18.6
- Binder: "2H8.04 (antibody, human IgG1, V domains shown, human IgG1/kappa; also called 2H8_HCvar4 + 2H8_LC) VH: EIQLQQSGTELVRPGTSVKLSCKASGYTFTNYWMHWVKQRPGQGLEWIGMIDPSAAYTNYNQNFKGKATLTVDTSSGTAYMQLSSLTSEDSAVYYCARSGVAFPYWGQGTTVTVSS VL: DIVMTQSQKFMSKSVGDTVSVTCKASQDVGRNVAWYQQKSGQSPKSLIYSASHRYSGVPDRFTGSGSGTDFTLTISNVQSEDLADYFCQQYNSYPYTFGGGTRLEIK"
  Measurement Units: "nM"
  Kd: 15.6

FYI, the data here is from patent US20210070881A1.
